Just for reference, paper PMC6917776 is where these values come from.

# PROTOCOL_DETAILS: CelltiterGlo viability cell assay
# Type: cell-based
# EXPERIMENTAL_SETUP: human, HCC1143 breast cancer cells, HCC1143, 6 day, 0.1 uM; read-out: viability Replicate 2
MEASUREMENT_TYPE: viability at 6 day, 0.1 µM

CHEMICAL_STRING	RESULT
COc1cc(OC)cc(-c2noc(N3CCN(C)C4(CCN(c5ccnc(C)c5)CC4)C3)n2)c1	102%

----------
# SYSTEM: PRDM9 (Homo sapiens, UniProt Q9NQV7)
# Construct: PRDM9 (amino acids: 195–415)
# Sequence (Q9NQV7 195-415): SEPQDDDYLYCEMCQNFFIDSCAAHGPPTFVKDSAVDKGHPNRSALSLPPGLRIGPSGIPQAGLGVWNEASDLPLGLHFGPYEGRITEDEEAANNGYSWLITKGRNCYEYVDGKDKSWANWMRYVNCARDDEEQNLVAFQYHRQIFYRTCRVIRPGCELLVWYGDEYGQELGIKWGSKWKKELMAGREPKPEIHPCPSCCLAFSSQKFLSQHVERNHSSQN
# PROTOCOL_DETAILS: MOA determination: IC50 at varying SAM or peptide concentrations (SPA)
# Format: biochemical
# EXPERIMENTAL_SETUP: [SAM]/Km 0.36; Figure 2d; average of replicates; read-out: Average IC50

CHEMICAL_STRING	IC50
COc1cc(OC)cc(-c2noc(N3CCN(C)C4(CCN(c5ccnc(C)c5)CC4)C3)n2)c1	0.704 µM

----------
# PROTOCOL_DETAILS: CelltiterGlo viability cell assay
# Assay type: cell-based
# EXPERIMENTAL_SETUP: human, MDA-MB-436 breast cancer cells, MDA MB436, 6 day, 30 uM; read-out: viability Replicate 2
MEASUREMENT_TYPE: viability at 6 day, 30 µM

CHEMICAL_STRING	MEASUREMENT_TYPE	RESULT
COc1cc(OC)cc(-c2noc(N3CCN(C)C4(CCN(c5ccnc(C)c5)CC4)C3)n2)c1	viability at 6 day, 30 µM	35.7%

----------
# PROTOCOL_DETAILS: CelltiterGlo viability cell assay
# Type: cell-based
# EXPERIMENTAL_SETUP: human, HCC1143 breast cancer cells, HCC1143, 6 day, 0.1 uM; read-out: viability Average

COMPOUND	viability at 6 day, 0.1 µM, %
COc1cc(OC)cc(-c2noc(N3CCN(C)C4(CCN(c5ccnc(C)c5)CC4)C3)n2)c1 [MRK-740]	105

----------
# PROTOCOL_DETAILS: CelltiterGlo viability cell assay
# Format: cell-based
# EXPERIMENTAL_SETUP: human, RPMI-8226 cells (multiple myeloma line), 8226, 6 day, 0.03 uM; read-out: viability Average

CHEMICAL_STRING	DISPLAY_UNIT	viability at 6 day, 0.03 µM
COc1cc(OC)cc(-c2noc(N3CCN(C)C4(CCN(c5ccnc(C)c5)CC4)C3)n2)c1	%	101

----------
# PROTOCOL_DETAILS: CelltiterGlo viability cell assay
# Assay type: cell-based
# EXPERIMENTAL_SETUP: human, CAL851 breast cancer cells, CAL851, 6 day, 0.1 uM; read-out: viability Replicate 1
MEASUREMENT_TYPE: viability at 6 day, 0.1 µM (%)

COMPOUND	MEASUREMENT_TYPE	DISPLAY_UNIT	RESULT
COc1cc(OC)cc(-c2noc(N3CCN(C)C4(CCN(c5ccnc(C)c5)CC4)C3)n2)c1 [MRK-740]	viability at 6 day, 0.1 µM	%	116

----------
# PROTOCOL_DETAILS: CelltiterGlo viability cell assay
# Assay type: cell-based
# EXPERIMENTAL_SETUP: human, HCC1143 breast cancer cells, HCC1143, 3 day, 30 uM; read-out: viability Replicate 3

CHEMICAL_STRING	DISPLAY_UNIT	viability at 3 day, 30 µM
COc1cc(OC)cc(-c2noc(N3CCN(C)C4(CCN(c5ccnc(C)c5)CC4)C3)n2)c1	%	22.6
